Just for reference, patent US7846935B2 is where these values come from.

Recorded measurements of inhibition at 1 µM, one per entry
test system: human osteoclasts; assay: Human osteoclast resorption assay; type: cell-based; conditions: human osteoclast, read-out: inhibition of human osteoclast activity
Response body: numeric value in %, unit text excluded.

Some entries whose results are on file:
[[record]]
chemical_string = "COCCN1CCC(c2ccc(C(=O)N[C@@H](CC(C)C)C(=O)N3CC[C@H]4OCC(=O)[C@H]43)cc2)CC1"
observed_value = 23

[[record]]
chemical_string = "COCCN1CCN(c2ccc(C(=O)N[C@@H](CC(C)C)C(=O)N3CC[C@H]4OCC(=O)[C@H]43)cc2)CC1"
observed_value = 57


Query string: GET inhibition at 1 µM | system: human osteoclasts | item: CCN1CCN(c2ccc(C(=O)N[C@@H](CC(C)C)C(=O)N3CC[C@H]4OCC(=O)[C@H]43)cc2)CC1
Result string: 58
